For each of the compounds below, state its IC50.
tgt: HCV NS3/4A protease genotype 1b (Hepatitis C virus genotype 1b)
Sequence (P26663 1027-1657): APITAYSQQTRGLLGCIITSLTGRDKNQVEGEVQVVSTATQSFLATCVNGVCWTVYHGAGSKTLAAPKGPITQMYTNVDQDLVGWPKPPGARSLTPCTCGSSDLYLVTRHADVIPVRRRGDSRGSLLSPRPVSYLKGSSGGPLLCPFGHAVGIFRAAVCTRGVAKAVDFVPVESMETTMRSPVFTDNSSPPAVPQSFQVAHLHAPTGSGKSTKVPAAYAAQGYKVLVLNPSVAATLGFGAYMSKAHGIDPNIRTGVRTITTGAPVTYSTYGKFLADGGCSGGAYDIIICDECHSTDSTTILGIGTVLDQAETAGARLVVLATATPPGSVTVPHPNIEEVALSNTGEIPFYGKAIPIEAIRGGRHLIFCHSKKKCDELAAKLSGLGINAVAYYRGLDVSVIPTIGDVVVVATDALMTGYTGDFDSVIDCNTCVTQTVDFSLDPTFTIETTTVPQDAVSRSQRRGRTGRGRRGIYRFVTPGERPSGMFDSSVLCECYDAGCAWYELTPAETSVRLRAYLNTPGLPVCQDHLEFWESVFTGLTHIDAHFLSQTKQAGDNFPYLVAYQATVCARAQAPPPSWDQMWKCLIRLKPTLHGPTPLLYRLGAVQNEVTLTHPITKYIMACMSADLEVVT
Sequence (P26663 1658-1711): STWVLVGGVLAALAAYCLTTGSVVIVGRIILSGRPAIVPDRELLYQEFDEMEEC
assay-comment: HCV NS3/4A protease time-resolved fluorescence (TRF) assay, Ki against genotype 1b
Format: biochemical
study-conditions: IC50 [gt-1b] (nM), NS3/4A genotype 1b, enzyme 0.2 nM
Numbers only here, please. The scale is nM.

Form: compound = `CC1(S(=O)(=O)NC(=O)[C@@]23C[C@H]2/C=C\CCCCC[C@H](NC(=O)OC2CCCC2)C(=O)N2C[C@@]4(CCc5c(c(C6CC6)nc6c(F)cccc56)O4)C[C@H]2C(=O)N3)CC1` ; IC50 = 0.013

The measured IC50 associated with `COc1ccc2nc(C)c3c(c2c1)CC[C@]1(C[C@H]2C(=O)N[C@]4(C(=O)NS(=O)(=O)C5(C)CC5)C[C@H]4/C=C\CCCCC[C@H](NC(=O)OC4(C)CC4)C(=O)N2C1)O3` reads 0.003

Quick note, IC50 for `Cc1nc2ccc(OC(F)(F)F)cc2c2c1O[C@]1(CC2)C[C@H]2C(=O)N[C@]3(C(=O)NS(=O)(=O)C4(C)CC4)C[C@H]3/C=C\CCCCC[C@H](NC(=O)OC3(C)CC3)C(=O)N2C1` landed at 0.019

Value of measured IC50 for the entry `Cc1nc2ccc(C(F)(F)F)cc2c2c1O[C@]1(CC2)C[C@H]2C(=O)N[C@]3(C(=O)NS(=O)(=O)C4(C)CC4)C[C@H]3/C=C\CCCCC[C@H](NC(=O)OC(C)(C)C)C(=O)N2C1` : 0.021

Form field IC50, entry `Cc1ccc2nc(C)c3c(c2c1)CC[C@]1(C[C@H]2C(=O)N[C@]4(C(=O)NS(=O)(=O)C5(C)CC5)C[C@H]4/C=C\CCCCC[C@H](NC(=O)OCC(C)C)C(=O)N2C1)O3` : 0.007

Data origin: patent US8987195B2
